I'd appreciate it if you could supply mortality at 12 ppm values for the items below.
- Tested on: Myzus persicae (Green Peach Aphid)
- assay remarks: Example B8: Myzus persicae (green peach aphid), intrinsic activity
- Format: in vivo
- settings: 120 h, test rate 12 ppm, sucrose solution, 24-well, 5 days after infestation

Task: # query: mortality at 12 ppm of entry Cc1nc(C(C)NC(=O)c2cc(C(F)(F)F)cc(C3(C#N)CC3)c2)n(-c2ncccn2)n1 (stereo not shown) [P83]
Result: ≥ 80%

Task: # query: mortality at 12 ppm of entry CC(c1ncnn1-c1ncccn1)N(CC1CC1)C(=O)c1cc(C2CC2C(F)(F)F)cc(C(F)(F)F)c1 (stereo not shown) [P42]
Result: ≥ 80%

Task: # query: mortality at 12 ppm of entry CC(NC(=O)c1cc(OCC(F)F)cc(C2CC2)c1)c1ncnn1-c1ncccn1 (stereo not shown) [P61]
Result: ≥ 80%

Task: # query: mortality at 12 ppm of entry CC(NC(=O)c1cc(C(F)(F)F)cc(C(F)(F)C2CC2)c1)c1ncnn1-c1ncccn1 (stereo not shown) [P59]
Result: ≥ 80%

Task: # query: mortality at 12 ppm of entry CC(c1ncnn1-c1ncccn1)N(CC1CC1)C(=O)c1cc(C2CC2(F)F)cc(C(F)(F)F)c1 (stereo not shown) [P50]
Result: ≥ 80%

Task: # query: mortality at 12 ppm of entry CC(NC(=O)c1cc(C2CC2)cc(C(F)(F)F)c1)c1ncnn1-c1ncccn1 (stereo not shown) [P24]
Result: ≥ 80%

Task: # query: mortality at 12 ppm of entry CC(c1ncnn1-c1ncccn1)N(C)C(=O)c1cc(C(F)(F)F)cc(C(F)(F)C2CC2)c1 (stereo not shown) [P58]
Result: ≥ 80%

Task: # query: mortality at 12 ppm of entry CC(NC(=O)c1cc(C(F)(F)F)cc(C2(C)CC2(F)F)c1)c1ncnn1-c1ncccn1 (stereo not shown) [P88]
Result: ≥ 80%

Task: # query: mortality at 12 ppm of entry CC(c1ncnn1-c1ncccn1)N(CC1CC1)C(=O)c1cc(C(F)(F)F)cc(C2(C)CC2C(F)(F)F)c1 (stereo not shown) [P43]
Result: ≥ 80%

Task: # query: mortality at 12 ppm of entry CC(NC(=O)c1cc(C(F)(F)F)cc(C2(C#N)CC2)c1)c1ncnn1-c1ncccn1 (stereo not shown) [P85]
Result: ≥ 80%

Task: # query: mortality at 12 ppm of entry CC(NC(=O)c1cc(C(F)(F)F)cc(S(C)(=O)=O)c1)c1ncnn1-c1ncccn1 (stereo not shown) [P64]
Result: ≥ 80%

Task: # query: mortality at 12 ppm of entry CC(NC(=O)c1cc(C2CC2(F)F)cc(C(F)(F)F)c1)c1ncnn1-c1ncccn1 (stereo not shown) [P87]
Result: ≥ 80%

Task: # query: mortality at 12 ppm of entry CC(c1ncnn1-c1ncccn1)N(CC1CC1)C(=O)c1cc(Cl)cc(C2(C#N)CC2)n1 (stereo not shown) [P29]
Result: ≥ 80%

Task: # query: mortality at 12 ppm of entry CC(NC(=O)c1cc(C(F)(F)F)cc(C(C)(C)C#N)c1)c1ncnn1-c1ncccn1 (stereo not shown) [P84]
Result: ≥ 80%

Task: # query: mortality at 12 ppm of entry CC(NC(=O)c1cc(C(F)(F)F)cc(C(C)(C)C#N)c1)c1ncnn1-c1ccccn1 (stereo not shown) [P75]
Result: ≥ 80%

Task: # query: mortality at 12 ppm of entry CC(c1ncnn1-c1ncccn1)N(CC1CC1)C(=O)c1cc(C(F)(F)F)cc(S(C)(=O)=O)c1 (stereo not shown) [P34]
Result: ≥ 80%

Task: # query: mortality at 12 ppm of entry CC(c1ncnn1-c1ncccn1)N(CC1CC1)C(=O)c1cccc(C2(C#N)CC2)c1 (stereo not shown) [P21]
Result: ≥ 80%

Task: # query: mortality at 12 ppm of entry CC(c1ncnn1-c1ncccn1)N(CC1CC1)C(=O)c1cc(C(F)(F)F)cc(S(=O)(=O)C(F)(F)F)c1 (stereo not shown) [P89]
Result: ≥ 80%

Task: # query: mortality at 12 ppm of entry Cc1nc(C(C)NC(=O)c2cc(C(F)(F)F)cc(C3(C#N)CC3)c2)n(-c2ncc(Br)cn2)n1 (stereo not shown) [P78]
Result: ≥ 80%

Task: # query: mortality at 12 ppm of entry CC(NC(=O)c1cc(C2CC2)nc(C(F)(F)F)c1)c1ncnn1-c1ncccn1 (stereo not shown) [P54]
Result: ≥ 80%

Task: # query: mortality at 12 ppm of entry CC(c1ncnn1-c1ncccn1)N(CC1CC1)C(=O)c1cc(C(F)(F)F)cc(C2(C#N)CC2)c1 (stereo not shown) [P46]
Result: ≥ 80%

Task: # query: mortality at 12 ppm of entry Cc1nc(C(C)NC(=O)c2cc(C3CC3)cc(C(F)(F)F)c2)n(-c2ncccn2)n1 (stereo not shown) [P86]
Result: ≥ 80%

Task: # query: mortality at 12 ppm of entry CC(c1ncnn1-c1ncccn1)N(CC1CC1)C(=O)c1cc([S+]([O-])C(F)(F)F)cc(C(F)(F)F)c1 (stereo not shown) [P26]
Result: ≥ 80%

Task: # query: mortality at 12 ppm of entry CC(c1ncnn1-c1ncccn1)N(CC1CC1)C(=O)c1cc(C(F)(F)F)cc(S(=O)(=O)C(F)F)c1 (stereo not shown) [P30]
Result: ≥ 80%

Task: # query: mortality at 12 ppm of entry Cc1nc(C(C)NC(=O)c2cc(C(F)(F)F)cc(C(C)(C)C#N)c2)n(-c2ncccn2)n1 (stereo not shown) [P82]
Result: ≥ 80%

Task: # query: mortality at 12 ppm of entry CC(NC(=O)c1cc(C2CC2C(F)(F)F)cc(C(F)(F)F)c1)c1ncnn1-c1ncccn1 (stereo not shown) [P25]
Result: ≥ 80%

Task: # query: mortality at 12 ppm of entry CC(c1ncnn1-c1ncccn1)N(CC1CC1)C(=O)c1cc(C(F)(F)F)cc(C2(C(F)(F)F)CC2)c1 (stereo not shown) [P45]
Result: ≥ 80%

Task: # query: mortality at 12 ppm of entry CC(c1ncnn1-c1ncccn1)N(CC1CC1)C(=O)c1cccc(C2CC2C(F)(F)F)c1 (stereo not shown) [P23]
Result: ≥ 80%

Task: # query: mortality at 12 ppm of entry Cc1nc(C(C)NC(=O)c2cc(C(F)(F)F)cc(C(C)(C)C#N)c2)n(-c2ncc(Br)cn2)n1 (stereo not shown) [P77]
Result: ≥ 80%

Task: # query: mortality at 12 ppm of entry CC(c1ncnn1-c1ncccn1)N(CC1CC1)C(=O)c1cc(C2CC2)nc(C(F)(F)F)c1 (stereo not shown) [P55]
Result: ≥ 80%

Task: # query: mortality at 12 ppm of entry CC(c1ncnn1-c1ncccn1)N(CC1CC1)C(=O)c1cc(C(F)(F)F)cc(C(C)(C)C#N)c1 (stereo not shown) [P35]
Result: ≥ 80%

Numbers sourced from patent US20210267203A1.
